These entries and their values trace back to patent US5155107A.

studySystem: cytoplasmic androgen (rat prostate) receptors (Rattus norvegicus)
Construct: Prostatic tissue, obtained from adrenalectomized and castrated Sprague-Dawley rats; from tissue; host or cells: prostate cytosol of adrenalectomized and castrated Sprague-Dawley rats
Sequence (P15207 whole entry S389L): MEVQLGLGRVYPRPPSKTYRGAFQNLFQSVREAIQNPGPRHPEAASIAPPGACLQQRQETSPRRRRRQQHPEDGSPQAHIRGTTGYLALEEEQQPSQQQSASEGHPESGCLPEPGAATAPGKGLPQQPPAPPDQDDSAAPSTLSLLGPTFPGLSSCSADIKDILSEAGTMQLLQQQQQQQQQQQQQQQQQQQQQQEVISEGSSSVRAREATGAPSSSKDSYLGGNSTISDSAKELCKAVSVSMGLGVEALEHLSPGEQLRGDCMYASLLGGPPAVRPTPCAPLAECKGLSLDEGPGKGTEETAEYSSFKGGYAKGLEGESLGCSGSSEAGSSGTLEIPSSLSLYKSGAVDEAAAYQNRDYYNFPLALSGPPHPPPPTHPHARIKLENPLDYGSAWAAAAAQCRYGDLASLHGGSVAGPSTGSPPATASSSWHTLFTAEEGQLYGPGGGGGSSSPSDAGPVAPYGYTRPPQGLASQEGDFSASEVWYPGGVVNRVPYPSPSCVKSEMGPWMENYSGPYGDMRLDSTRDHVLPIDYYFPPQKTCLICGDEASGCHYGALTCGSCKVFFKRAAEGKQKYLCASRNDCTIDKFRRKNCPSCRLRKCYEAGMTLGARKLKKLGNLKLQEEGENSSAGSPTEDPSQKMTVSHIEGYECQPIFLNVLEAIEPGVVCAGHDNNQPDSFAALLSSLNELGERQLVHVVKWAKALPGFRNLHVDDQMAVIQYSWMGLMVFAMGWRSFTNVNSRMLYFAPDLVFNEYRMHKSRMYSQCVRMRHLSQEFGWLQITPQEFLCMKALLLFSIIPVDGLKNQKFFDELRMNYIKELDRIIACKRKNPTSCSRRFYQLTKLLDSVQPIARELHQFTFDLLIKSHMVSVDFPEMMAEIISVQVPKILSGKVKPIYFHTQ
testDescription: Rat prostate androgen receptor binding (inhibition of 3H-DHT binding)
Parameters: species or system Sprague-Dawley rats
propertyLabel: IC50 (µM)
# number only, unit µM dropped from output

# input Give recorded IC50 with cytoplasmic androgen (rat prostate) receptors (Rattus norvegicus) for the following compound: CC(C)NC(=O)N(C(=O)[C@H]1CC[C@H]2[C@@H]3CC[C@H]4N(C)C(=O)CC[C@]4(C)[C@H]3CC[C@]12C)C(C)C
# output 150
